- System: NHERF4_1, Q86UT5-2
- Sequence (Q86UT5 other isoform, or with tags, fused parts or gaps): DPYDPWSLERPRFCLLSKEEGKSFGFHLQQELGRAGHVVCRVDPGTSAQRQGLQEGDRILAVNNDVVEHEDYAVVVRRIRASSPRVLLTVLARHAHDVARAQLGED
- Test method notes: holdup assay
- Set-up: key: below the threshold = too weak to quantify, mostly under pKd 3.1 to 4
- Experimental conditions: plain residues with an end cap or a label only (N-terminal biotin on a linker: ado-ado)
Endpoint name: pKd

1. NHSSSPETTA [TRMT13, Q9NUP7]    below the threshold
2. SNAGNTATKA [NOSTRIN, Q8IVI9]    below the threshold
3. RRLPGKETMA [GRIK2, Q13002]    below the threshold
4. LKVPPEERLI [CRB2, Q5IJ48]    below the threshold
5. TACCHSETVV [TGFA, P01135]    below the threshold
6. QPCFNKLFPL [LPXN, O60711]    below the threshold

Please turn your attention to the following entry.
Query: // query pKd value for entry GSGAVEMESV [AQP6, Q13520]
Result: below the threshold
